All figures here come from paper PMC2756588.

experimental system: Rvs167, P39743
Sequence (P39743 419-482): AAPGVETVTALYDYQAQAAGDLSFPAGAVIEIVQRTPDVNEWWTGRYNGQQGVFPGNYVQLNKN
assay comment: SPOT array
condition label: median of control spots 2707
readout kind: SPOT intensity

Use the examples below as a reference point.
binder	SPOT intensity
NFFRKKLGIPRKLKR	3
SSSSSPPPLPTRRDH	3540
VYTRTAFQIPGDDKI	0
KKAPPPVVKPKPRNF	1
GQYRRTIVIPRRFFT	0

(I) ALFRLSFFFPLDPAY
(II) AIPPPVPNRPGGTTN
Given the listed records, identify the one among I and II with higher SPOT intensity. Reply with the label of the item you choose.
II
(II: 1430, I: 8)

(1) VQKRKLPLPGSIASA
(2) KTRLRPAFIQQLWSS
# argmax over SPOT intensity for candidates 1 and 2 Kindly give the label for the entry you pick.
2
(2: 1, 1: 0)

(A) APPLPPTAPPPPSLP
(B) DAPASKPSVPPRNYF
SPOT intensity comparison. Which is larger, A or B ? Answer by stating the label of the chosen item.
B
